B1: KCNK9 (parent)
chain: CFITLTTIGFGDYVALQTKGALQK

# Variants of: B1
# PROCEDURE_SUMMARY: protein stability index of a GFP-peptide fusion (GPS, HEK-293T) (PSI 1-6); higher = more stable;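 also: lentivirally expressed fusions sorted by FACS into six bins by GFP to DsRed ratio, PSI derived from sequencing read proportions per bin multiplied by bin number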
# CONDITION: c terminus: a fixed tail appended
OBSERVATION_TYPE: protein stability index
Could you keep your reply to the number by itself?

Guide cases for protein stability index, answers given:
mutation_code=T4A test_value=2.99
mutation_code=G11K test_value=2.73
mutation_code=T4R test_value=2.99

## Input Indicate the recorded protein stability index value for this variant: I8V
## Output 3.42

## Input Please indicate protein stability index recorded for L5R
## Output 2.24

## Input Give the value of protein stability index reported for the following: L22K
## Output 2.4

## Input Report measured protein stability index; entry is L16K
## Output 3.4

## Input Provide one value: measured protein stability index of L22I
## Output 2.06

## Input Look up and report measured protein stability index for this entry: T7P
## Output 2.32

## Input Report measured protein stability index; entry is L5G
## Output 2.48

Measured values drawn from the supplement of paper PMC10567573 for this set.
